- Tested on: MDA-MB-231 cells
- test.name: MTT cytotoxicity assay, MDA-MB-231 cells, 72 h
- Format: cell-based, human
- test.settings: Homo sapiens, MDA-MB-231; MTT test, 72 h exposure, average ± SEM, N = 3
measurement.kind: IC50

Examples from the recorded data:
compound="CC1(C)CC[C@]2(C(=O)O)CC[C@]3(C)C(=CC[C@@H]4[C@@]5(C)CC[C@H](O)C(C)(C)[C@@H]5CC[C@]43C)[C@@H]2C1 [Compound 71, Oleanolic acid]" measurement_kind=IC50 result="> 20 µM"
compound="O=C(O)C=Cc1ccc(O)cc1 [Compound 21, p-Coumaric acid]" measurement_kind=IC50 result="> 20 µM"
compound="O=c1cc(-c2ccc(O)cc2)oc2c([C@@H]3OC[C@H](O)[C@H](O)[C@H]3O)c(O)c([C@@H]3O[C@H](CO)[C@@H](O)[C@H](O)[C@H]3O)c(O)c12 [Compound 29]" measurement_kind=IC50 result="> 20 µM"
compound="CC(C)(O)CC[C@@H](O)[C@](C)(O)[C@H]1CC[C@@]2(O)C3=CC(=O)[C@@H]4C[C@@H](O)CC[C@]4(C)[C@H]3CC[C@]12C [Compound 58, 2-Deoxy-20-hydroxyecdysone]" measurement_kind=IC50 result="0.53 µM"
compound="C[C@H]([C@H](O)CCC(C)(C)O)[C@H]1CC[C@@]2(O)C3=CC(=O)[C@@H]4C[C@@H](O)CC[C@]4(C)[C@H]3CC[C@]12C [Compound 72, 2-Deoxyecdysone]" measurement_kind=IC50 result="> 20 µM"

Turning now to a further compound:
[in] Quickly give me recorded IC50 for C[C@@H]1C(=O)O[C@H](C)[C@H]1C[C@@H](O)[C@](C)(O)[C@H]1CC[C@@]2(O)C3=CC(=O)[C@@H]4C[C@@H](O)[C@@H](O)C[C@]4(C)[C@H]3CC[C@]12C [Compound 76, Cyasterone]
[out] > 20 µM

====

As shown below, each of these molecules has a reported pIC50 value.
- Tested on: MDA-MB-231 cells
- test.name: MTT cytotoxicity assay, MDA-MB-231 cells, 72 h
- Assay type: cell-based, human
- test.settings: MTT test, 72 h exposure, average ± SEM, N = 3
pIC50: −log10 of the molar value.

molecule=COc1cc(/C=C/C(=O)O)ccc1O tgt="MDA-MB-231 cells" measurement_kind=pIC50 result="< 4.70"

// next entry
[in] Please give measured pIC50 of the following entry: O=c1cc(-c2ccc(O)cc2)oc2cc(O[C@@H]3O[C@H](CO)[C@@H](O)[C@H](O)[C@H]3O)c([C@@H]3O[C@H](CO)[C@@H](O)[C@H](O)[C@H]3O)c(O)c12 [Compound 38, Saponarin (isovitexin 7-O-β-D-glucoside)]
[out] < 4.70
